Molecular target: Farnesyl pyrophosphate synthase (Homo sapiens, UniProt P14324)
Sequence (P14324 whole entry): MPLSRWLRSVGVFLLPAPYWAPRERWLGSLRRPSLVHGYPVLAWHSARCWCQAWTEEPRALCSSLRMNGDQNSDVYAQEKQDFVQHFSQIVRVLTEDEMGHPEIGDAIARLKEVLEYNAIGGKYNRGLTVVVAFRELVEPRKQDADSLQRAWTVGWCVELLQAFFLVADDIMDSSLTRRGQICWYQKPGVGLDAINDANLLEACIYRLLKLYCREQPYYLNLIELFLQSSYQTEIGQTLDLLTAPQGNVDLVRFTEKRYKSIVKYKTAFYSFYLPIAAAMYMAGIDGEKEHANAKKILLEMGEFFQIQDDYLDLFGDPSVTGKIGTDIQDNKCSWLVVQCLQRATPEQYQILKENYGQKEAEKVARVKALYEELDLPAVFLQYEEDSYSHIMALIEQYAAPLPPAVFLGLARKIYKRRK
Assay: Binding affinity to FPPS (unknown origin) expressed in Escherichia coli BL21(DEscherichia ) assessed as binding constant of proton H11 of isopentenylic moiety by saturation transfer difference NMR analysis
observed property: Kd
State the value with its unit after it.

Q: So what does the record say about Kd for CC(C)=CCNc1ncnc2c1ncn2[C@@H]1O[C@H](CO)[C@@H](O)[C@H]1O [RIBOPRINE] ?
Ans: 550 µM

Data origin: ChEMBL document CHEMBL3352333
